Origin of the recorded values: patent US7435837B2

# measurement target: human 5-HT2C receptor (Homo sapiens, UniProt P28335)
# Sequence (P28335 33-458): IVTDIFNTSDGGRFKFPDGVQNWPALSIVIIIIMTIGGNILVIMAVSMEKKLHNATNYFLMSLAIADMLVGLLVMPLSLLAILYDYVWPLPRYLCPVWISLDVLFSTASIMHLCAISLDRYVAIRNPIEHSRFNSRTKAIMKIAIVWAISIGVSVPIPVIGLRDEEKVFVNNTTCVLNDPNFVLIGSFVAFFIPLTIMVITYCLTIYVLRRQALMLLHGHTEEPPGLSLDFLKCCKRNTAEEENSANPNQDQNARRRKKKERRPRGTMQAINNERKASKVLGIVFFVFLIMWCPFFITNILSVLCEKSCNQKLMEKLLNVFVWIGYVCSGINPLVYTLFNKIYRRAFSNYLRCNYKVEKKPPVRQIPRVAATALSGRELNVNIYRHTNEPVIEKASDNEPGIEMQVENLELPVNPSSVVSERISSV
# assay: 5-HT2C receptor-stimulated calcium mobilization (FLIPR) in CHO cells;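 also: Fluo-3-AM fluorescence read on FLIPR every 1 s, agonist added after 10 baseline reads, response taken as peak minus lowest raw fluorescence count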
# Type: cell-based
# test context: calcium mobilization, CHO cells stably expressing human 5-HT2C; read-out: 5-HT2C Function EC50
Would you mind classing the entries by EC50? Ranges: 1: < 9 nM; 2: ≥ 9 nM and < 40 nM; 3: ≥ 40 nM

CNCC1Cc2cc(F)cc(-c3cc(C)ccc3C)c2O1 (racemic) :: 3
CNCC1Cc2cccc(-c3ccccc3Cl)c2O1 (racemic) [Example 409] :: 2
COc1cc2c(c(-c3cc(Cl)ccc3Cl)c1)OC(CN)C2 (racemic) [Example 367] :: 1
NCC1Cc2cccc(-c3cc(Cl)ccc3Cl)c2O1 (racemic) [Example 163] :: 1
CNCC1Cc2cc(F)cc(-c3c(Cl)cccc3Cl)c2O1 (racemic) [Example 454] :: 1
CNCC1Cc2cc(F)cc(-c3c(C)cccc3C)c2O1 (racemic) [Example 453] :: 2
Cc1cc2c(c(-c3ccccc3C)c1)OC(CN)C2 (racemic) :: 3
Cc1ccccc1-c1cc(Cl)cc2c1OC(CN)C2 (racemic) [Example 95] :: 3
CNCC1Cc2cc(F)cc(-c3cccnc3)c2O1 (racemic) :: 2
NCC1Cc2cccc(-c3ccc(Cl)cc3)c2O1 (single isomer, unassigned; (+)) [Example 77] :: 1
NCC1Cc2cc(F)cc(-c3ccc(F)cc3)c2O1 (racemic) :: 3
Cc1ccccc1-c1cccc2c1OC(CN)C2 (racemic) [Example 47] :: 1
NCC1Cc2cccc(-c3ccccc3C(F)(F)F)c2O1 (racemic) [Example 53] :: 3
CNCC1Cc2cc(F)cc(-c3cc(Cl)ccc3Cl)c2O1 (single isomer, unassigned; (-)) [Example 451] :: 3
COc1ccc(OC)c(-c2cccc3c2OC(CN)C3)c1 (racemic) :: 2
CNCC1Cc2cc(OC)cc(-c3cccc(C)c3C)c2O1 (racemic) :: 3
NCC1Cc2cc(F)cc(-c3c(Cl)cccc3Cl)c2O1 (single isomer, unassigned; (+)) [Example 551] :: 2

###

# measurement target: human 5-hydroxytryptamine-2C (h5-HT2C) receptor (Homo sapiens)
# Construct: expressed in transfected cells; host or cells: CHO (Chinese Hamster Ovary) cells; membranes
# assay: [125I]DOI binding to membranes of CHO cells expressing the human 5-HT2C receptor
# test context: [125I]DOI radioligand, CHO cell membranes, room temperature 60 min; read-out: 5-HT2C Affinity Ki
recorded metric: Ki (nM)

CC(C)c1cccc2c1OC(CN)C2 (single isomer, unassigned; (-)) [Example 19] :: 2
NCC1Cc2cc(-c3cccc(Cl)c3)cc(F)c2O1 (racemic) [Example 382] :: 801
CNCC1Cc2cc(C)cc(-c3c(C)cccc3C)c2O1 (racemic) [Example 489] :: 3
NCC1Cc2cccc(CCc3ccccc3)c2O1 (racemic) [Example 120] :: 128
CNCC1Cc2cc(Cl)cc(-c3cccc(F)c3F)c2O1 (racemic) [Example 463] :: 21
Cc1cccc(-c2cccc3c2OC(CN)C3)c1 (single isomer, unassigned; (+)) [Example 42] :: 17
NCC1Cc2cccc(-c3c(Cl)cccc3Cl)c2O1 (single isomer, unassigned; (-)) [Example 141] :: 0.07
COc1cc2c(c(-c3ccc(Cl)cc3Cl)c1)OC(CN)C2 (racemic) [Example 365] :: 24
